Cited source: patent US20070021495A1

- System name: purified full-length human ERalpha (Homo sapiens, UniProt P03372)
- Construct: purified full-length human ERalpha and ERbeta receptors purchased from Pan Vera (Madison, Wis.); purchased Pan Vera (Madison, Wis.)
- Sequence (P03372 1-595): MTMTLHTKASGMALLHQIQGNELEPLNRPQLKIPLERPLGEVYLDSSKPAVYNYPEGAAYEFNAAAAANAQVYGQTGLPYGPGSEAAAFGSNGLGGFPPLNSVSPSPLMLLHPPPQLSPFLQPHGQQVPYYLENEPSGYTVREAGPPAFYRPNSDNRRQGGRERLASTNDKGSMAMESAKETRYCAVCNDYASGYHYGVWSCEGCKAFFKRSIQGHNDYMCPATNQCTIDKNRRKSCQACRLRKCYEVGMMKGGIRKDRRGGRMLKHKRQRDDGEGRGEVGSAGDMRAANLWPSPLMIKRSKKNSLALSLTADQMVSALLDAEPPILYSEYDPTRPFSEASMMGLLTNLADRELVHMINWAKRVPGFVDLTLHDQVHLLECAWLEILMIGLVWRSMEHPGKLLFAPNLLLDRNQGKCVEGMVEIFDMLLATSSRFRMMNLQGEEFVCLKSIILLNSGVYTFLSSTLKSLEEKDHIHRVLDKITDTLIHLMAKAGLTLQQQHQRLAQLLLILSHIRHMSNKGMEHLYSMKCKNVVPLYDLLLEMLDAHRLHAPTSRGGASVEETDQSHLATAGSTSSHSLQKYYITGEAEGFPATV
- Assay: Competitive radiometric binding assay, relative binding affinity (RBA), ERalpha
- Settings: normalized to estradiol set at 100%; [3H]estradiol 10 nM tracer, 18-24 h at 0° C
Measured metric: Relative binding affinity (RBA) ERα (%)

| Molecule | Unit info | Relative binding affinity (RBA) ERα |
| --- | --- | --- |
| CCC(CC)N(c1ccc(O)cc1)S(=O)(=O)c1ccc(O)cc1 [Compound 20j] | % | 0.018 |
| CCCCN(c1ccc(O)cc1)S(=O)(=O)c1ccc(O)cc1 [Compound 20d] | % | 0.023 |

(A) CCCN(c1ccc(O)cc1)S(=O)(=O)c1ccc(O)cc1 [Compound 20c]
(B) CCN(c1ccc(O)cc1)S(=O)(=O)c1ccc(O)cc1 [Compound 20b]
(C) CCCC(C)N(c1ccc(O)cc1)S(=O)(=O)c1ccc(O)cc1 (stereo not shown) [Compound 20i]
(D) CCCCCN(c1ccc(O)cc1)S(=O)(=O)c1ccc(O)cc1 [Compound 20f]
Query: Task field, ranking: reported Relative binding affinity (RBA) ERα, descending order. Use the labels to give the requested order.
Response: D, A, C, B
(D: 0.047%, A: 0.026%, C: 0.013%, B: 0.007%)
